# credit: ChEMBL document CHEMBL5096164

Experiment: Half life in C57BL/6 mouse plasma at 2 mg/kg, ip measured after 3 to 240 mins by LC-MS/MS analysis
Assay type: ADME, organism-based
Details: time 3-240 min
EXPERIMENTAL ENDPOINT: half-life (min)
Write the answer as a number in min, unit excluded.

*Q* Sample C1=CCC(c2cccnc2)NC1 (stereo unspecified) — what was its half-life?
*A* 12.6

----------
Assay: Clearance in Wistar rat plasma at 2 mg/kg, iv administered as bolus dose measured after 5 to 360 mins by LC-MS/MS analysis
Assay type: ADME, organism-based
Conditions: time 5-360 min
EXPERIMENTAL ENDPOINT: clearance (mL/min/kg)
Write the answer as a number in mL/min/kg, unit excluded.

*Q* Sample C1=CCC(c2cccnc2)NC1 (stereo unspecified) — what was its clearance?
*A* 8.11
